- Tested on: NALM-6
- Protocol Notes: Cytotoxicity against human NALM6 cells after 48 hrs by MTT assay
- Format: functional, cell-based
- Settings: NALM-6, 48 h
Exercise: state measured IC50 for each of the molecules provided.
The response must be a number in µM with no trailing unit.

Suppose we examine the molecule C=C1C(=O)Oc2c(OC)cccc2C1CC(C)=O (centres undefined) ; what IC50 value has been reported?
73.2

Suppose we examine the molecule C=C1C(=O)Oc2c(OC)cccc2[C@H]1[C@@H]1Cc2ccccc2C1=O (relative stereo) ; what IC50 value has been reported?
4.66

Suppose we examine the molecule C=C1C(=O)Oc2ccccc2[C@H]1[C@@H]1CCCC1=O ; what IC50 value has been reported?
488

Suppose we examine the molecule C=C1C(=O)Oc2ccccc2[C@H]1[C@@H]1Cc2cc(OC)ccc2C1=O (relative stereo) ; what IC50 value has been reported?
0.65

Suppose we examine the molecule C=C1C(=O)Oc2ccc(Cl)cc2[C@H]1[C@@H]1CCCCC1=O (relative stereo) ; what IC50 value has been reported?
94.6

Suppose we examine the molecule C=C1C(=O)Oc2ccccc2[C@H]1[C@@H]1CCc2cc(OC)ccc2C1=O (relative stereo) ; what IC50 value has been reported?
0.51

Suppose we examine the molecule C=C1C(=O)Oc2ccccc2C1CC(C)=O (centres undefined) ; what IC50 value has been reported?
94.4

Suppose we examine the molecule C=C1C(=O)Oc2c(OC)cccc2[C@H]1[C@@H]1CCCCC1=O (relative stereo) ; what IC50 value has been reported?
4.14
